pIC50: −log10 of the molar value.
Record set: pIC50 | Poly [ADP-ribose] polymerase tankyrase-1 (Homo sapiens) | literature, multiple sources.
EXPERIMENTAL READOUT: pIC50

> print(dat)
                    structure.smiles.string  experimental.readout  quantitative.result
1  Cc1cccc2c1c(=O)n(C[C@H]1CC[C@H](C(=O)Nc3ccncc3)CC1)c(=O)n2Cc1cccc(C(F)(F)F)c1C#N                 pIC50                 8.49
2  CN(C)c1cc(F)c2c(c1)N(C)C(=O)C21CCN(c2nc3c(c(=O)[nH]2)CCCN3C)CC1                 pIC50                 8.20
3               O=C(CCC1CCCC1)Nc1nnc2n1CCS2                 pIC50                 7.55
